Ref: patent US20170088610A1

target: T1, human nerve growth factor (human, UniProt P01138 122-241); test: BIAcore SPR screen, Fab over immobilised human NGF; KD calculated from koff with kon 4e4 M-1s-1
T1 construct: Immobilised on CM5 chips for BIAcore, soluble in neuron survival assays; also called human NGF; hNGF
T1 sequence (P01138 122-241 limits assumed): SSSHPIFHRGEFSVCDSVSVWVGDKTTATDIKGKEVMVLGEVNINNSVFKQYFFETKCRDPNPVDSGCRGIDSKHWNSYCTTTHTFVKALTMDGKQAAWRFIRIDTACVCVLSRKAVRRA
Measured Kd, listed per entry for reference.
readoutType: Kd (nM)

binder="heavy chain library clone H109 (Fab, V domains shown, paired with the CDR-grafted light chain; See note of m8) VH: QVQLQESGPGLVKPSETLSLTCTVSGFSLIGYDSNWIRQPPGKGLEWIGIIWGDGTTDYNSALKSRVTISKDTSKNQFSLKLSSVTAADTAVYYCARGGYYYGTSYYFDYWGQGTLVTVS VL: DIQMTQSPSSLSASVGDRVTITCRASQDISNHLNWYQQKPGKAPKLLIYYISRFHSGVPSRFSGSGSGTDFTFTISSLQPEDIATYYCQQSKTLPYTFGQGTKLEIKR" reportedvalue=4
binder="heavy chain library clone H19 (Fab, V domains shown, See note of m8) VH: QVQLQESGPGLVKPSETLSLTCTVSGFSLIGYDLNWIRQPPGKGLEWIGIIWGDGTTDYNSAVKSRVTISKDTSKNQFSLKLSSVTAADTAVYYCARGGYYYGTSYYFDYWGQGTLVTVS VL: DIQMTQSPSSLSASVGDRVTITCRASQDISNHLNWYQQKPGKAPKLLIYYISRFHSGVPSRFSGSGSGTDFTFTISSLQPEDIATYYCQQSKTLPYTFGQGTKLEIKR" reportedvalue=6
binder="heavy chain library clone H18 (Fab, V domains shown, See note of m8) VH: QVQLQESGPGLVKPSETLSLTCTVSGFSLIGYDATWIRQPPGKGLEWIGGIWGDGTTDYNSAVKSRVTISKDTSKNQFSLKLSSVTAADTAVYYCARGGYYYGTSYYFDYWGQGTLVTVS VL: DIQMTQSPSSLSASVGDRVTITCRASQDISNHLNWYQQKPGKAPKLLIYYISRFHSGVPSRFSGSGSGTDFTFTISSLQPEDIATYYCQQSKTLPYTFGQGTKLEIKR" reportedvalue=10.5
binder="light chain library clone L97 (Fab, V domains shown, See note of m8) VH: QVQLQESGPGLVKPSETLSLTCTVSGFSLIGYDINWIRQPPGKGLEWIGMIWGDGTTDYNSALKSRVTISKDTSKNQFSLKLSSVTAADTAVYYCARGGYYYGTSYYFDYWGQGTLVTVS VL: DIQMTQSPSSLSASVGDRVTITCRASQSISNQLNWYQQKPGKAPKLLIYYVSRFHSGVPSRFSGSGSGTDFTFTISSLQPEDIATYYCQQSKTLPYTFGQGTKLEIKR" reportedvalue=14
